Tested on: Mus musculus
Assay: Analgesic activity in po dosed mouse assessed as inhibition of acetic acid-induced writhing administered 30 mins prior to acetic acid challenge measured after 5 mins for 20 mins
Type: functional
Records here are stratified by ED50; strata: bottom range = under 4 mg/kg, center range = from 4 mg/kg up to 9 mg/kg, top range = 9 mg/kg and over

Below are worked cases with known answers.
molecule="CCCCCC(C)C(C)c1cc(O)c2c(c1)OC(C)(C)C1CC=C(C)CC21 (stereo unspecified)" label_value="center range"
molecule="CC1CCC2=C(C1)c1c(OC(=O)CCCN3CCOCC3)cc(C(C)CCCc3ccc(F)cc3)cc1OC2(C)C.Cl (stereo unspecified)" label_value="center range"

Problem: Lab log: CC1CCC2=C(C1)c1c(O)cc(C(C)CCCCc3ccc(F)cc3)cc1OC2(C)C (stereo unspecified) — assign ED50 category
Result: top range

Problem: Lab note: sort CC1CCC2=C(C1)c1c(O)cc(C(C)C(C)CCc3ccncc3)cc1OC2(C)C (stereo unspecified) into the matching ED50 band.
Result: center range

Problem: Kindly identify the class of C#CCN1CCC2=C(C1)c1c(OC(=O)C(C)CCN3CCOCC3)cc(C(C)CCCc3ccc(F)cc3)cc1OC2(C)C.Cl (stereo unspecified) .
Result: center range

meta.source: ChEMBL document CHEMBL3272295
